Read-out: 3-Hydroxy-3-Methylglutaryl-CoA Synthase 2 (HMGCS2), HMGCS2 (gene 3158)
Test: LTEA_HepaRG_HMGCS2: Life Technologies and Expression Analysis (LTEA) Assay for 3-Hydroxy-3-Methylglutaryl-CoA Synthase 2 (HMGCS2) using HepaRG (AID 2283504)
Details: mRNA level, 48 h; actives raise or lower the signal
Active and inactive are the calls of the source. The calls were made as follows: active = hit-call score of the fitted dose curve at least 0.9, where 1 is the maximum; inactive = score below 0.9.
Could you please pick one outcome from this set? 1 (active), 0 (inactive)

Previously resolved entries follow.
>  <COMPOUND>
NC(=O)NO

>  <QUALITATIVE LABEL>
0

$$$$
>  <COMPOUND>
COc1ccc2sc(C(=O)Nc3nnn[nH]3)c(OC(C)C)c2c1

>  <QUALITATIVE LABEL>
1

$$$$
>  <COMPOUND>
CCOc1cccc(-n2cc(C(=O)N3CCN(c4cc(C(=O)O)c5ccccc5c4)CC3)nc2-c2ccc(C)cc2)c1

>  <QUALITATIVE LABEL>
1

$$$$
>  <COMPOUND>
O=C1CCC(N2C(=O)c3ccccc3C2=O)C(=O)N1 (stereo unspecified)

>  <QUALITATIVE LABEL>
0

$$$$
>  <COMPOUND>
Cc1[nH]cnc1C[C@H]1CCc2c(C)c3ccccc3n2C1=O

>  <QUALITATIVE LABEL>
1

$$$$

# ---- query compound ----
// query Called result for `C1N2CN3CN1CN(C2)C3`
// result 0

====

Read-out: Nuclear factor NF-kappa-B p105 subunit (Homo sapiens) (UniProt P19838)
Sequence (P19838 whole entry, looked up): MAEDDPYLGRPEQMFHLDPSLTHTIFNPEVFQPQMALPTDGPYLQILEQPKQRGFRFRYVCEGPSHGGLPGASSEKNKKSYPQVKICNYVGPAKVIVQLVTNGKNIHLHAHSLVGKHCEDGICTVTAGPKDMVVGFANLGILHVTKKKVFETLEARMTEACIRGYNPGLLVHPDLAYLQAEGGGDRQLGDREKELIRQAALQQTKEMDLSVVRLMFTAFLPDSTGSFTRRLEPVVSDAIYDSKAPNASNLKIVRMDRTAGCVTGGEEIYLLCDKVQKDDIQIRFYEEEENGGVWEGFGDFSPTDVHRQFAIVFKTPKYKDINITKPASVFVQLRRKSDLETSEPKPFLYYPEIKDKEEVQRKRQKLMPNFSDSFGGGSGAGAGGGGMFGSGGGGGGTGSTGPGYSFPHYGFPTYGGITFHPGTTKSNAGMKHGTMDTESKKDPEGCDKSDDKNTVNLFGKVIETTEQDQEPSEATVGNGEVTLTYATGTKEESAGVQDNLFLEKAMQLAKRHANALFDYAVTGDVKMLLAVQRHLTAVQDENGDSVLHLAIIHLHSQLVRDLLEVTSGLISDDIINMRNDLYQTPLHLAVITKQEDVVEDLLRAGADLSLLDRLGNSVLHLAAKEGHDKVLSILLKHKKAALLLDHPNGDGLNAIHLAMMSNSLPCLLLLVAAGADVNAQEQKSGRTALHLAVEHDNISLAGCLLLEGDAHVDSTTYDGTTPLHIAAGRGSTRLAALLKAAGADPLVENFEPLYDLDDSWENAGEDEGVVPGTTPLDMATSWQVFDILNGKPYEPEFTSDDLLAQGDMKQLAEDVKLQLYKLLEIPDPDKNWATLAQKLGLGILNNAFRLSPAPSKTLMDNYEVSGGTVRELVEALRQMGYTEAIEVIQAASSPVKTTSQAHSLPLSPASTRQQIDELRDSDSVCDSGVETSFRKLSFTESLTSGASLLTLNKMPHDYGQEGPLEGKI
Experiment: LTEA_HepaRG_NFKB1: Life Technologies and Expression Analysis (LTEA) Assay for Nuclear Factor Kappa B Subunit 1 (NFKB1) using HepaRG (AID 2283521)
Conditions: mRNA level, 48 h; actives raise or lower the signal
The source made the active and inactive calls. The calls were made as follows: active = hit-call score of the fitted dose curve at least 0.9, where 1 is the maximum; inactive = score below 0.9.
Thanks in advance; please answer with one of these: 1 (active), -1 (inactive)

Answered cases to consult:
>  <ENTRY SMILES>
CC[C@H]1OC(=O)[C@H](C)[C@@H](O[C@H]2C[C@@](C)(OC)[C@@H](O)[C@H](C)O2)[C@H](C)[C@@H](O[C@@H]2O[C@H](C)C[C@H](N(C)C)[C@H]2O)[C@](C)(O)C[C@@H](C)C(=O)[C@H](C)[C@@H](O)[C@]1(C)O

>  <QUALITATIVE LABEL>
-1

$$$$
>  <ENTRY SMILES>
O=C(CCCCCCCCc1cccnc1)N1CCC(C=C(c2ccccc2)c2ccccc2)CC1

>  <QUALITATIVE LABEL>
1

$$$$
>  <ENTRY SMILES>
CC[C@H]1CC[C@H](NCc2cc3c(cc2OC)[C@H]2C[C@H]2C(=O)N3C)[C@H](c2ccccc2)N1

>  <QUALITATIVE LABEL>
-1

$$$$

// query Outcome? `O=C(O)c1cccc(Oc2ccccc2)c1`
// result -1

// query Hi, do you know how `C1N2CN3CN1CN(C2)C3` came out in this test?
// result -1

// query Assay outcome for `Nc1cccc(N)c1` : what was it?
// result -1

====

Read-out: Alpha-fetoprotein (AFP) gene, AFP (gene 174)
Test: LTEA_HepaRG_AFP: Life Technologies and Expression Analysis (LTEA) Assay for Alpha-fetoprotein (AFP) gene using HepaRG (AID 2283472)
Details: mRNA level, 48 h; actives raise or lower the signal
The source made the active and inactive calls. The calls were made as follows: active = hit-call score of the fitted dose curve at least 0.9, where 1 is the maximum; inactive = score below 0.9.
Entry note: the call must match one of active, inactive

>  <COMPOUND>
CN(C)c1ccc(N=NS(=O)(=O)O)cc1

>  <QUALITATIVE LABEL>
inactive

$$$$
>  <COMPOUND>
O=P(OC(CCl)CCl)(OC(CCl)CCl)OC(CCl)CCl

>  <QUALITATIVE LABEL>
active

$$$$
>  <COMPOUND>
CC[C@H](C)C(=O)O[C@H]1C[C@@H](C)C=C2C=C[C@H](C)[C@H](CC[C@@H]3C[C@@H](O)CC(=O)O3)[C@H]21

>  <QUALITATIVE LABEL>
inactive

$$$$
>  <COMPOUND>
CCOCCO

>  <QUALITATIVE LABEL>
inactive

$$$$
>  <COMPOUND>
CCOC(=O)COc1ccc2c(c1)CC(NCC(O)c1cccc(Cl)c1)CC2 (centres undefined)

>  <QUALITATIVE LABEL>
inactive

$$$$

// query # outcome recorded in this test, key = `O=C(NS(=O)(=O)/C=C/c1ccccc1)c1ccc(F)cc1Cl`
// result active

// query Assay result, entry COc1ccc(-n2nc(C(F)F)cc2-c2ccc(S(C)=O)cc2)cc1 (centres undefined) — outcome?
// result inactive

// query Tell me the recorded outcome of this test for `C=CC(=C)CCC=C(C)C` .
// result inactive

// query Dear all, I need the recorded test outcome for `Cc1ccc(S(=O)(=O)O)cc1C` , thank you.
// result inactive

// query Which outcome was entered for the compound `CC(C)=CCC/C(C)=C\CO` in this test?
// result inactive

// query What call does the record list for `Cn1c(=O)cc(Oc2ccc(F)cc2F)c2cnc(NCC(C)(C)O)nc21` ?
// result inactive

// query Test call for this compound, please: `COc1ccc2sc(C(=O)Nc3nnn[nH]3)c(OC(C)C)c2c1`
// result active

// query How did this test come out for `CC1=CC(=O)CC(C)(C)C1` ?
// result inactive

// query # lookup: test call for `COC(=O)c1c(Cl)c(Cl)c(C(=O)OC)c(Cl)c1Cl`
// result inactive

// query # lookup: test call for `CC[C@H]1OC(=O)[C@H](C)[C@@H](O[C@H]2C[C@@](C)(OC)[C@@H](O)[C@H](C)O2)[C@H](C)[C@@H](O[C@@H]2O[C@H](C)C[C@H](N(C)C)[C@H]2O)[C@](C)(O)C[C@@H](C)C(=O)[C@H](C)[C@@H](O)[C@]1(C)O`
// result inactive

// query What outcome does the record of this test show for CCCCC(CC)COC(=O)CCCCCCCCC(=O)OCC(CC)CCCC (centres undefined) ?
// result inactive

// query // param item: `Cn1c(=O)c2c(ncn2C)n(C)c1=O` ; yields the recorded call
// result inactive

// query For this compound, state the assay outcome: `CC(C)=CCC/C(C)=C/CO`
// result inactive

// query Fill in: this test's call for `CC[C@H]1CC[C@H](NCc2cc3c(cc2OC)[C@H]2C[C@H]2C(=O)N3C)[C@H](c2ccccc2)N1` is ___
// result active

// query Write down the call the test reported for this compound. Item: `Cc1ccc(C)c(O)c1`
// result inactive

// query Could you check what this test reported for `COc1ccc(/C=C/S(=O)(=O)NC(=O)c2ccc(C)cc2Cl)cc1` ?
// result inactive

// query Answer briefly: the call reported for `O=C(O)c1cc(N=Nc2ccc(S(=O)(=O)Nc3ccccn3)cc2)ccc1O` in this assay.
// result inactive

// query Hi, sorry to bother you, what did the test record for `COCCOCCOCCOC` ?
// result inactive

// query Kindly provide the recorded test outcome for the following compound: `COC(=O)c1ccccc1O`
// result inactive

// query Look up the recorded call for `Cc1c(-c2cccnc2)c2ccccc2n1CCCCC(=O)O` in this test.
// result inactive
